Tested on: Hemozoin
ASSAY: Inhibition of beta-hematin formation assessed as reduction in hemozoin formation incubated for 20 hrs by NP40 detergent-mediated assay
ASSAY CONTEXT: read-out: IC50
ATTRIBUTE MEASURED: IC50 (µM)

Check out these entries, answers already filled in.
COMPOUND	ATTRIBUTE MEASURED	UNITS TEXT	MEASURED NUMBER
Clc1ccc(-c2nc(-c3ccc(Cl)cc3)c(-c3ccccc3)[nH]2)cc1	IC50	µM	39
COc1ccc(-c2nc(-c3ccccc3)c(-c3ccccc3)[nH]2)cc1	IC50	µM	48.1
Brc1ccc(-c2nc(-c3ccccc3)c(-c3ccccc3)[nH]2)cc1	IC50	µM	489
Fc1ccc(-c2nc(-c3ccc(Cl)cc3)c(-c3ccccc3)[nH]2)cc1	IC50	µM	28
COc1ccc(-c2nc(-c3ccc(Cl)cc3)c(-c3ccccc3)[nH]2)cc1	IC50	µM	20.5
c1ccc(-c2nc(-c3c[nH]c4ccccc34)[nH]c2-c2ccccc2)cc1	IC50	µM	72.8
COc1ccc(-c2nc(-c3ccc(Br)cc3)c(-c3ccccc3)[nH]2)cc1	IC50	µM	20.3
Brc1ccc(-c2nc(-c3ccccc3)[nH]c2-c2ccccc2)cc1	IC50	µM	294

P: Clc1ccc(-c2nc(-c3ccc(Br)cc3)[nH]c2-c2ccccc2)cc1
Q: c1ccc(-c2nc(-c3ccco3)[nH]c2-c2ccccc2)cc1
R: CCN(CC)CCCC(C)Nc1ccnc2cc(Cl)ccc12 (centres undefined)
S: Brc1ccc(-c2nc(-c3ccc(Br)cc3)c(-c3ccccc3)[nH]2)cc1
T: Cc1ccc(-c2nc(-c3ccccc3)c(-c3ccccc3)[nH]2)cc1
Request: Put the entries in order of IC50, starting with the largest number. Please reply with the labels ordered as requested. Many thanks.
Response: Q, T, S, P, R
